# Assay Name: Ex vivo biodistribution in Daudi xenograft-bearing mice
# Run Parameters: male, NOD.Cg-Rag1tm1Mom Il2rgtm1Wjl/SzJ (NRG), mouse, heart, iv, total radioactivity, Heart uptake, 1 h p.i., mean
Where a SMILES comes first, the peptide text is derived from it. Side-chain parts run from the residue outwards. [ ]: non-standard residue; d: D form. The star is where a group is joined. DOTA = O=C(O)CN1CCN(CC(=O)O)CCN(CC(=O)*)CCN(CC(=O)O)CC1; 2Nal = N[C@@H](Cc1ccc2ccccc2c1)C(=O)O; dNMeOrn = CN[C@H](CCCN)C(=O)O; 4Amb = NCc1ccc(C(=O)O)cc1
Measured Quantity: tissue uptake at 1 h (%ID/g)
Numbers only, in %ID/g.

Given item CN1C(=O)[C@@H](Cc2ccc(O)cc2)NC(=O)CNC(=O)[C@H](Cc2ccc3ccccc3c2)NC(=O)[C@H](CCCNC(=N)N)NC(=O)[C@H]1CCCNC(=O)c1ccc(CNC(=O)CN2CCN(CC(=O)O)CCN(CC(=O)O)CCN(CC(=O)O)CC2)cc1 [[68Ga]Ga-Pentixafor, metal not drawn] (cyclo([dY][dNMeOrn]([4Amb-DOTA])R[2Nal]G)) , the value recorded as its tissue uptake at 1 h is 0.36
